# System: Staphylococcus aureus
# ASSAY SUMMARY: Antimicrobial activity against Staphylococcus aureus ATCC 25923 by serial dilution method
# Format: functional
Non-standard residues stand in square brackets, D forms with d. Residues, ends and D or L forms follow the SMILES beside them. *: point of attachment. Phe(4-guanidino) = N=C(N)Nc1ccc(C[C@H](N)C(=O)O)cc1; Bip = N[C@@H](Cc1ccc(-c2ccccc2)cc1)C(=O)O; hArg = N=C(N)NCCCC[C@H](N)C(=O)O; NHBn = c1ccc(CN*)cc1
Each entry below carries its reported MIC.
ENDPOINT NAME: MIC

* N=C(N)NCCC[C@H](N)C(=O)N[C@@H](Cc1ccc(NC(=N)N)cc1)C(=O)N[C@@H](Cc1ccc(-c2ccccc2)cc1)C(=O)NCc1ccccc1 (H-Arg-[Phe(4-guanidino)]-[Bip]-NHBn) | 2.5 µg/mL
* N=C(N)Nc1ccc(C[C@H](NC(=O)[C@H](Cc2ccc(-c3ccccc3)cc2)NC(=O)[C@@H](N)Cc2ccc(NC(=N)N)cc2)C(=O)NCc2ccccc2)cc1 (H-[Phe(4-guanidino)]-[Bip]-[Phe(4-guanidino)]-NHBn) | < 2.5 µg/mL
* N=C(N)NCCCC[C@H](NC(=O)[C@H](Cc1ccc(-c2ccccc2)cc1)NC(=O)[C@@H](N)CCCNC(=N)N)C(=O)NCc1ccccc1 (H-Arg-[Bip]-[hArg]-NHBn) | 5 µg/mL
